Reference source for all entries: the C3SDB collision cross section collection

Conditions: [M-H]-; instrument: DT; single field, calibrated with Agilent tune mix (Agilent)
Recorded metric: collision cross section (N2) (Å²)

O=C(O)C(O)Cc1ccccc1 (racemic) [DL-3-Phenyllactic acid]: 134.74
COc1cc(CC(=O)O)ccc1O [Homovanillic acid]: 134.15
CCCCCCCCCCCC(=O)O [Dodecanoic acid]: 152.58
CN1CC(=O)N=C1N [Creatinine]: 116.68
O=C(O)CN(CCN(CC(=O)O)CC(=O)O)CC(=O)O [EDTA]: 151.17
O=C(O)/C=C/c1cnc[nH]1 [Urocanic acid]: 118.78
O=C(O)[C@H]1OC(O)[C@H](O)[C@@H](O)[C@H]1O (stereo partly drawn) [D-galacturonic acid]: 128.3
C[C@]12C[C@H](O)[C@H]3[C@@H](CCC4=CC(=O)CC[C@@]43C)[C@@H]1CC[C@@H]2C(=O)CO [Corticosterone]: 186.46
O=C(O)C(O)Cc1ccc(O)cc1 (stereo not given) [Hydroxyphenyllactic acid]: 139.4
OCCc1c[nH]c2ccc(O)cc12 [5-Hydroxytryptophol]: 134.49

###

Conditions: [M+H]+; instrument: TW
Recorded metric: collision cross section (N2) (Å²)

CCOP(=S)(OCC)SCS(=O)(=O)C(C)(C)C: 172.88
C[C@H]1C[C@H]2[C@@H]3CCC4=CC(=O)C=C[C@]4(C)[C@@]3(F)[C@@H](O)C[C@]2(C)[C@@]1(O)C(=O)CCl: 201.29
CC(Oc1ccc(Oc2ccc(C(F)(F)F)cn2)cc1)C(=O)O (centres undefined): 173.47
C[C@]12C=CC(=O)C=C1CC[C@@H]1[C@@H]2C(=O)C[C@@]2(C)[C@H]1CC[C@]2(O)C(=O)CO: 180.1

###

Conditions: [M+H]+; instrument: DT; stepped-field
Recorded metric: collision cross section (N2) (Å²)

CC(C)[C@H](N)C(=O)O [L-Valine]: 134.28
O=c1c(-c2ccc(O)cc2)coc2cc(O)ccc12 [Daidzein]: 157.23
CN(C)[C@@H]1C(=O)C(C(N)=O)=C(O)[C@@]2(O)C(=O)C3=C(O)c4c(O)cccc4[C@@](C)(O)[C@H]3C[C@@H]12 [Tetracycline]: 198.48
O=C(O)c1cccnc1C(=O)O [Quinolinic Acid]: 138.98
Cn1cnc2[nH]c(N)nc(=O)c21 [7-Methylguanine]: 134.33

###

Settings: [M-H]-; instrument: TW; calibrated with phosphatidylcholines (ESI+) and phosphatidylethanolamines (ESI-)
Recorded metric: collision cross section (N2) (Å²)

CC/C=C\C/C=C\C/C=C\C/C=C\C/C=C\CCCC(=O)O[C@H](CO/C=C\CCCCCCCCCCCCCCCC)COP(=O)(O)OCCN [PE(p38:5)]: 268.7
CC/C=C\C/C=C\C/C=C\C/C=C\C/C=C\C/C=C\CCC(=O)O[C@H](CO/C=C\CCCCCCCCCCCCCCCC)COP(=O)(O)OCCN [PE(p40:6)]: 274.4
CCCCCCCCCCCCC=CC[C@@H](O)[C@H](CO)NC(=O)CCCCCCCCCCCCCCC [Cer(d18:1/16:0)]: 243.7
CCCCCC/C=C\CCCCCCCCCC(=O)O[C@H](CO)COP(=O)(O)OCCN [LPE(18:1)]: 210.2
CC/C=C\C/C=C\C/C=C\C/C=C\CCCCC(=O)OC[C@H](COP(=O)(O)O[C@H]1C(O)C(O)C(O)[C@@H](O)C1O)OC(=O)CCCCCCCCCCCCCCCCCCC (stereo partly specified) [PI(38:4)]: 292.1
CC/C=C\C/C=C\C/C=C\C/C=C\CCCCC(=O)O[C@H](CO/C=C\CCCCCCCCCCCCCCCC)COP(=O)(O)OCCN [PE(p36:4)]: 264.6
